B1: Membrane-associated guanylate kinase, WW and PDZ domain-containing protein 2, residues 601 to 682; numbered along this chain, Q86UL8 (parent)
chain: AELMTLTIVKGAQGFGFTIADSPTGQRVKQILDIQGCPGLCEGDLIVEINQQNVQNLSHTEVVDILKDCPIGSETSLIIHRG

variants of: B1; assay: abundance fitness (aPCA) (normalised: wild type 0, dead -1); higher = more abundant; growth selection in yeast, the domain comes from the species named; conditions: Homo sapiens
RECORDED ENDPOINT: abundance fitness

>>> result("I34Y")
0.013
>>> result("L32Q")
-0.212
>>> result("E42W")
-0.171
>>> result("S22Y")
-0.04
>>> result("T75G")
-0.08
>>> result("I79C")
-0.115
>>> result("S58T")
-0.135
>>> result("C69H")
-0.329
>>> result("D21M")
0.079
>>> result("Q52R")
-0.007
>>> result("N53G")
-0.051
>>> result("S73W")
-0.06
>>> result("S73F")
0.029
>>> result("D21A")
-0.126
>>> result("F17W")
-0.022
>>> result("I71G")
0.038
>>> result("D68Q")
0.07
>>> result("N53Y")
-0.064
>>> result("D44S")
-0.618
>>> result("E74V")
-0.122
>>> result("K67L")
-0.083
>>> result("Q30D")
-0.022
